Molecular target: Sphingosine 1-phosphate receptor 3 (Homo sapiens, UniProt Q99500)
Sequence (Q99500 whole entry): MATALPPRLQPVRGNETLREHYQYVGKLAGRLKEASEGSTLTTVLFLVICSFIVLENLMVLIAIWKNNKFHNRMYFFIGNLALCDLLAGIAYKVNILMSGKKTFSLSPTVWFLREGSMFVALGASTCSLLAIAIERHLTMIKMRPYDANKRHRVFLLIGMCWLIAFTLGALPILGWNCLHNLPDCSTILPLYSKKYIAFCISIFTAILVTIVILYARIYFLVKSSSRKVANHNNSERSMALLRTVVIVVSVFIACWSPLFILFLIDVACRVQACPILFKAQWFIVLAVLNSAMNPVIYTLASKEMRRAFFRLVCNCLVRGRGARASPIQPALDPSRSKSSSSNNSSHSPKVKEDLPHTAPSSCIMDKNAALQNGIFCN
Parameter: pIC50
Numbers only, as −log10 of the molar value.

Request: Fill in the blank: the reported pIC50 of `CCC(C)(C)c1ccc(-c2nc(-c3ccc(CN4CC(C(=O)O)C4)cc3)no2)cc1` is ____.
Result: 5.51

---

Molecular target: Sphingosine 1-phosphate receptor 5 (Homo sapiens, UniProt Q9H228)
Sequence (Q9H228 whole entry): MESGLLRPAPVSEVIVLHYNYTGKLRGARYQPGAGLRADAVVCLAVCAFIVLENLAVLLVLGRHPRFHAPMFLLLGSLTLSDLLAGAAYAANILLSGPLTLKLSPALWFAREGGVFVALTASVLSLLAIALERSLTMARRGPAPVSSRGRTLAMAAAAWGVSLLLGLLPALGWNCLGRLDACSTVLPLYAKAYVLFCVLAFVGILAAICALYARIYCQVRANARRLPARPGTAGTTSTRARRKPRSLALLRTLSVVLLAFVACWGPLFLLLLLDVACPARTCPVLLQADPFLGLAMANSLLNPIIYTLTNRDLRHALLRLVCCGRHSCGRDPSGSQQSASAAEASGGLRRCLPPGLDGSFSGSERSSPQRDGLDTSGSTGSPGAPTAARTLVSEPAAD
Experiment: S1P Receptor Binding Assay
Conditions: 25 °C
Parameter: IC50 (nM)
Numbers only, in nM.

Request: Fill in the blank: the reported IC50 of `CCCCc1ccc(-c2nc(-c3ccc(CN4CC(C(=O)O)C4)cc3)no2)cc1` is ____.
Result: 2.4
